Where do the numbers come from? From the OPERA property sets (Mansouri et al. 2018).

# if value of melting point reaches 80 °C, tag TRUE; if it stays below, tag FALSE

Some solved cases for reference:
compound=Oc1ccc(OCc2ccccc2)cc1 label=TRUE
compound=CCC(=O)c1ccc(N)cc1 label=TRUE
compound=CCCCCCC(=O)OC(=O)CCCCCC label=FALSE
compound="O=C(OCC(O)CO)c1ccccc1Nc1ccnc2c(C(F)(F)F)cccc12 (stereo not given)" label=TRUE
compound=O=[N+]([O-])c1cccc(Cl)c1Cl label=FALSE

# next compound below
Assess whether reported melting point for CC(=O)[C@@]1(O)[C@H](O)C[C@H]2[C@@H]3CCC4=CC(=O)CC[C@]4(C)[C@H]3CC[C@@]21C sits at 80 °C or higher.
TRUE

###

Quantity: log10 Henry constant (atm·m³/mol)
Kindly provide the number alone.

smiles_entry=Clc1ccc(-c2ccccc2)cc1Cl quantity="log10 Henry constant (atm·m³/mol)" numeric_readout=-3.85
smiles_entry=CCCCCCI quantity="log10 Henry constant (atm·m³/mol)" numeric_readout=-1.55

Name the recorded log10 Henry constant (atm·m³/mol) for Clc1cccc(-c2cccc(Cl)c2)c1 .
-3.63

Which log10 Henry constant (atm·m³/mol) is listed for FC(F)(F)Cl ?
0.14

###

Quantity: boiling point

Worked examples, 5 molecules total:
molecule=FC(F)(F)c1nc(C(F)(F)F)nc(C(F)(F)F)n1 quantity="boiling point" result="95.5 °C"
molecule=c1ccc2scnc2c1 quantity="boiling point" result="231 °C"
molecule=Cc1cccc(Cl)n1 quantity="boiling point" result="184 °C"
molecule=CCCCOCCOCCOC(C)=O quantity="boiling point" result="245 °C"
molecule=CCCCCCOC=O quantity="boiling point" result="156 °C"

# lookup: boiling point of CC(=O)C=O
72 °C

###

Reported values of melting point for individual entries
Your answer should be a plain number; it is taken to be in °C.

Study these solved cases before continuing.
compound=COC(=O)CSc1cc(/N=c2\sc(=O)n3n2CCCC3)c(F)cc1Cl quantity="melting point" numeric_readout=106
compound=CSC(C)(C)C=NO quantity="melting point" numeric_readout=21
compound=CC(C)OC(=O)C(C)(C)Oc1ccc(C(=O)c2ccc(Cl)cc2)cc1 quantity="melting point" numeric_readout=80.5

# next compound below
melting point lookup needed for Cc1ncc([N+](=O)[O-])n1C , thanks.
138

###

Quantity: melting point (°C)
Numbers only; they are read as °C.

A selection of reference data follows.
compound=c1cncnc1 numeric_readout=22
compound=NC(=O)c1cc(Cl)cc(Cl)c1N numeric_readout=162
compound=O=[N+]([O-])c1cccc2ncccc12 numeric_readout=74
compound=COc1cccc2c(=O)c3c(n(C)c12)O[C@@H](C(C)C)C3 numeric_readout=119

Need melting point, item [O-][n+]1ccccc1
65.5

I am curious: what melting point value has been reported for C[C@]12CCC(=O)C=C1CC[C@@H]1[C@@H]2C(=O)C[C@@]2(C)[C@H]1CC[C@]2(O)C(=O)CO ?
222

I'd like to know its melting point. The compound in question is C#CC(C)(C)Cl
-61

###

API: label(entry) gives met if the entry's boiling point is strictly smaller than 100 °C; on equality or larger values it gives not met.

Answered examples (3):
compound=O[C@@H]1CCc2ccccc21 label="not met"
compound=CCCCCc1ccc(O)cc1 label="not met"
compound=CCC(=O)N(CC)CC label="not met"

Could you now look at the following compound, please?
A record lists CC(=O)OC(C)CC(C)C (configuration not stated) . Is its boiling point below 100 °C?
not met

###

I would appreciate it if you labelled entries fulfilled when melting point is 50 °C or higher, otherwise not fulfilled.

molecule=O=c1c(O)c(-c2ccccc2)oc2ccccc12 label=fulfilled
molecule=CCCC[N+](=O)[O-] label="not fulfilled"
molecule="ClC1OCCOC1Cl (stereo not drawn)" label="not fulfilled"
molecule=C=C(Cl)c1ccccc1 label="not fulfilled"
molecule=Cc1ccccc1NC(=O)c1ccccc1 label=fulfilled
molecule=FC(F)(F)c1ccccc1Cl label="not fulfilled"

Identify whether the reported melting point of the following molecule is 50 °C or greater: CN1C(=O)OC(C)(C)C1=O
not fulfilled

Does the reported melting point for C=C(C)CC1(CC)C(=O)NC(=S)NC1=O fall at or above the 50 °C mark?
fulfilled

###

Rule: measured log10 Koc (L/kg) below 2 gets Condition met; anything equal to or greater than 2 gets Condition not met.

molecule=CCc1ccccc1 label="Condition not met"
molecule="Cl[C@H]1[C@H](Cl)[C@@H](Cl)[C@@H](Cl)[C@H](Cl)[C@H]1Cl (racemic)" label="Condition not met"
molecule=COc1c(Cl)ccc(Cl)c1C(=O)O label="Condition met"
molecule=CC(C)NC(=O)N1CC(=O)N(c2cc(Cl)cc(Cl)c2)C1=O label="Condition not met"
molecule=CSc1nnc(C(C)(C)C)c(=O)n1N label="Condition met"
molecule=CCOP(=S)(OCC)Oc1cc(C)nc(N(CC)CC)n1 label="Condition not met"

Given the entry CC1(C)C(C=C(Cl)Cl)C1C(=O)OCc1cccc(Oc2ccccc2)c1 (stereo unspecified) , would its reported log10 Koc (L/kg) be below 2?
Condition not met

Report whether reported log10 Koc (L/kg) is lower than 2 (strictly) for COc1ccc(N)cc1
Condition met

Find out if reported log10 Koc (L/kg) for O=[N+]([O-])c1ccc(Br)c(Cl)c1 is less than 2
Condition not met

I'd appreciate it if you could check whether c1ccc2cc3c(ccc4ccccc43)cc2c1 has log10 Koc (L/kg) smaller than 2.
Condition not met

State whether 2 exceeds log10 Koc (L/kg) recorded for O=C(O)c1cc([N+](=O)[O-])cc([N+](=O)[O-])c1 .
Condition met

Does the reported log10 Koc (L/kg) of the following molecule sit strictly below 2? C=Cc1ccncc1
Condition met

###

Binary call on log10 vapour pressure (mmHg): label 1 from -2 upward, label 0 beneath that.

Here's what some known entries look like.
smiles_entry=CC(C)OC(=O)Cl label="label 1"
smiles_entry=N#CCCO label="label 1"
smiles_entry=FC(C(F)(F)F)C(F)(F)F label="label 1"

Say whether CC(=O)C(C)(C)C shows log10 vapour pressure (mmHg) of -2 or more.
label 1

Identify whether the reported log10 vapour pressure (mmHg) of the following molecule is -2 or greater: CNC(=O)ON=C(CSC)C(C)(C)C
label 0

Check the entry CCCCCCCCF : does log10 vapour pressure (mmHg) equal or exceed -2?
label 1

Decide: is the reported value of log10 vapour pressure (mmHg) for CC(C)=NOCCOC(=O)[C@@H](C)Oc1ccc(Oc2cnc3cc(Cl)ccc3n2)cc1 equal to or greater than -2?
label 0

Form field: log10 vapour pressure (mmHg) at least -2? Entry: c1cc2c3c(cccc3c1)CC2
label 0

Confirm if log10 vapour pressure (mmHg) reported for the molecule CC(C)NC(=O)N1CC(=O)N(c2cc(Cl)cc(Cl)c2)C1=O is -2 or above.
label 0

Threshold query (log10 vapour pressure (mmHg) >= -2) on CCCCCCC(C)=O
label 1

# check: log10 vapour pressure (mmHg) of CCCCSP(=O)(SCCCC)SCCCC is greater than or equal to -2
label 0

###

Each record here notes measured log10 Koa.
The answer should be a number; do not append a unit.

Below, 2 compounds whose answers are already recorded.
compound=Clc1cc(Cl)c(Cl)c(Cl)c1Cl numeric_readout=6.49
compound=Clc1cc(Cl)c2cc(Cl)c(Cl)c(Cl)c2c1 numeric_readout=8.82

Looking for the measured log10 Koa of CCCC(C)=O , can you help?
3.19

Quick one: log10 Koa for Clc1ccc2c(Cl)c(Cl)ccc2c1 ?
7.5

If you can, please state the reported log10 Koa value of Clc1cc2c(Cl)ccc(Cl)c2c(Cl)c1Cl .
9.1

So what does the record say about log10 Koa for Clc1cccc(-c2ccccc2)c1 ?
6.82

Which log10 Koa is reported for this compound? C1CCOC1
2.86

###

Binning of boiling point into classes: lower bin (below 100 °C), middle bin (100 °C to below 200 °C), upper bin (200 °C or more)

Consider the following illustrative entries.
molecule=CCOc1ccccc1F label="middle bin"
molecule=CC(C)[N+](=O)[O-] label="middle bin"
molecule=C1CCCC1 label="lower bin"

Lab log: CCCCCCC(=O)CCCCCC — assign boiling point category
upper bin

Classify this molecule: CC(=O)Br
lower bin

Please let me know in which category the item CCC(CC)C(=O)OC belongs.
middle bin

###

Below, each entry is listed alongside its reported melting point.
Numbers only here, please. The scale is °C.

Previously resolved entries follow.
compound=CCC(CC)C(C)C quantity="melting point" numeric_readout=-115
compound=Fc1ccccc1 quantity="melting point" numeric_readout=-42.2
compound=c1ccc2c(c1)C1c3ccccc3C2c2ccccc21 quantity="melting point" numeric_readout=254
compound=CCOC(=O)CC(=O)c1ccc([N+](=O)[O-])cc1 quantity="melting point" numeric_readout=72
compound=Brc1ccc(-c2ccccc2)cc1 quantity="melting point" numeric_readout=91.5
compound=FC(F)(F)C(F)(F)C(F)(F)C(F)(F)F quantity="melting point" numeric_readout=-128
compound=Oc1c(Cl)cc(Cl)cc1Sc1cc(Cl)cc(Cl)c1O quantity="melting point" numeric_readout=188
compound=N[C@@H]1CONC1=O quantity="melting point" numeric_readout=140
compound="CNP(=O)(OC)Oc1ccc(C(C)(C)C)cc1Cl (stereo unspecified)" quantity="melting point" numeric_readout=60
compound=CNC(=S)NCc1ccccc1 quantity="melting point" numeric_readout=75

melting point lookup needed for CCCCCCCS , thanks.
-43

Query (compound): CCCCCCCCCCCCCCCC(=O)OC[C@H](O)[C@H]1OC(=O)C(O)=C1O ; field requested: melting point
116

// melting point lookup, key: C#CCCCCCCCCCCCCCC
15

Please report the recorded melting point for CC(=O)NCCS .
6.5

Fill blank: measured melting point of the compound C[C@@H](O)CC(=O)O is ____.
47.5

Entry under review: CC(CC(=O)O)CC(=O)O . Reported melting point?
87
